# measurement-target: Farnesyl-protein transferase from bovine brain (partially purified enzyme preparation) (Bos taurus, UniProt P29702+P49355)
# Construct: the indicated compounds were incubated with this partially purified enzyme preparation; chromatographed on DEAE-Sephacel and N-octyl agarose
# assay-name: Competition of Ras farnesylation by polyisoprenoids and peptides (Hepes-buffered assay, immunoprecipitation and nitrocellulose filtration)
# condition-details: [Leu68]RAS1(term.)CVLS at 1 µM, 0.5 µM [3H]FPP, 10 min at 24° C; average of 2-5 determinations; >> = no competition at the highest concentration tested
endpoint: pIC50
Convention used: pIC50 is expressed as -log10 of the molar concentration.

Past entries and their recorded results:
[
  {
    "smiles-data": "CC(C)=CCOP(=O)(O)OP(=O)(O)O",
    "pIC50": 3.49
  },
  {
    "smiles-data": "CC(C)=CCC/C(C)=C/CC/C(C)=C/CC/C(C)=C/COP(=O)(O)OP(=O)(O)O",
    "pIC50": 5.85
  },
  {
    "smiles-data": "CC(C)=CCC/C(C)=C/COP(=O)(O)OP(=O)(O)O",
    "pIC50": 4.17
  }
]

Consider the record given below.
Need pIC50, item `CC(C)=CCC/C(C)=C/CC/C(C)=C/COP(=O)(O)OP(=O)(O)O`
6.15
